Taken from patent US20240409645A1.

- Study target: T1, human common cytokine receptor γ-chain (IL-2Rγ) (human, UniProt P31785 23-262, limits assumed)
- T1 construct: Recombinant human IL-2Rγ protein, coated (ELISA) or amine-coupled to a CM5 chip (SPR); also called hu IL-2R; CD132
- T1 sequence: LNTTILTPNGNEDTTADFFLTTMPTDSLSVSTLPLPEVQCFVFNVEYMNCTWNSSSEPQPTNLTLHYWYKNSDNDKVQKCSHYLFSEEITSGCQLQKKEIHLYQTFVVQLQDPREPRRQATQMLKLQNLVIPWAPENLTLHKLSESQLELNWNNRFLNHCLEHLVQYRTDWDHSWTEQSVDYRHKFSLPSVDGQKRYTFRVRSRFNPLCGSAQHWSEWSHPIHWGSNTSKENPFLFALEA
- Assay info: P.E. binding ELISA
Threshold check on PE binding ELISA OD: strictly below 0.7 OD450 nm is Condition met; on or above 0.7 OD450 nm is Condition not met.

# Binder, Label class
rows = [
    ("FJ1427_P035MP07B03 (VHH, tested as periplasmic extract; also called Clone nr) VHH: EVQLVESGGGLVQAGGSLRLSCAASGRALSRLAMGWFRQAPGKEREFVVASSWGDDTFYADSVKGRFTFSRDNAKNTVYLQMNSLQPGDTAVYYCAAAPTSFATTAYSSSNSYAYWGQGTQVTVSS", "Condition not met"),
    ("FJ1427_P035MP07G05 (VHH, tested as periplasmic extract; also called Clone nr) VHH: QVQLVESGGGLVQAGGSLRLSCAASGRTLSRYAMGWFRQAPGKEREFVAADSWGGDTYYADSVEGRFTFSRDNANNAVYLQMNSLQPEDTAVYYCAAAPTSFATTAYSSSNSYAYWGQGTQVTVSS", "Condition met"),
    ("FJ1427_P035MP07A08 (VHH, tested as periplasmic extract; also called Clone nr; 633) VHH: QVQLVESGGGLVQAGGSLRLSCAASGRTLSRYAMGWFRQAPGKEREFVTANSWGGDTYYADSVQGRFTFSRDNAKNTVYLQMNSLQPEDTAVYYCAAAPTSFATTAYSSSNSYAYWGQGTQVTVSS", "Condition not met"),
    ("FJ1427_P035MP07A06 (VHH, tested as periplasmic extract; also called Clone nr) VHH: QVQLVESGGGLVQPGGSLRLSCAASGRTLSRYAMGWFRQAPGKEREFVTANSWGGDTYYADSVQGRFTFSRDNAKNTVYLQMNSLQPEDTAVYYCAAAPTSFATTAYSSSNSYAYWGQGTQVTVSS", "Condition not met"),
    ("FJ1427_P035MP07G04 (VHH, tested as periplasmic extract; also called Clone nr) VHH: EVQLVESGGGLVQAGGSLRLSCAASGRTLSRYAMGWFRQAPGKEREFVTANSWGGDTYYADSVQGRFTFSRDNAKNTVYLQMNSLQPEDTAVYYCAAAPTSFATTAYSSSNSYAYWGQGTQVTVSS", "Condition not met"),
    ("FJ1427_P035MP04F12 (VHH, tested as periplasmic extract; also called Clone nr) VHH: QVQLQESGGGWVQVGESLRLSCVPSGRTFVSGIMGWFRQAPGKEREFVARIILNNNSTRYTDSVKGRFTISRDSAKNTMYLQMNTLRPEDTAVYYCAARDRYGSGNSLSPSAYDYWGQGTQVTVSS", "Condition not met"),
    ("FJ1427_P035MP07B08 (VHH, tested as periplasmic extract; also called Clone nr; 634) VHH: EVQLVESGGGSVQPGGSLRLSCAASGRTLSRYAMGWFRQAPGKEREFVTANSWGGDTYYADSVQGRFTFSRDNAKNTVYLQMNSLQPEDTAVYYCAAAPTSFATTAYSSSNSYAYWGQGTQVTVSS", "Condition met"),
    ("FJ1427_P035MP07G09 (VHH, tested as periplasmic extract; also called Clone nr; 647) VHH: QVQLQESGGGLVQAGGSLRLSCAASGRTLSRVAMGWFRQAPGKEREFVAADSWGGDTFYADSVEGRFTFSRDNAKNAVYLQMNSLQPEDTAVYFCAGAPASFATTAYSSSNSYSYWGQGTQVTVSS", "Condition not met"),
    ("FJ1427_P035MP07E02 (VHH, tested as periplasmic extract; also called Clone nr) VHH: QVQLVESGGGLVQAGGSLRLSCAASGRALSRLAMGWFRQAPGKEREFVVASSWGDDTFYADSVKGRFTFSRDNAKNTVYLQMNSLQPGDTAVYYCAAAPTSFATTAYSSSNSYAYWGQGTQVTVSS", "Condition met"),
    ("FJ1427_P035MP07A09 (VHH, tested as periplasmic extract; also called Clone nr) VHH: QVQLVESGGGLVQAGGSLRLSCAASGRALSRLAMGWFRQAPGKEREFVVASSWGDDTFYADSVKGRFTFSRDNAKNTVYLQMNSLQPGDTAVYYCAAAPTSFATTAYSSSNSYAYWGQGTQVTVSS", "Condition met"),
    ("FJ1427_P035MP07D10 (VHH, tested as periplasmic extract; also called Clone nr) VHH: QVQLVESGGGLVQAGGSLRLSCAASGRTLSRYAMGWFRQAPGKEREFVAADSWGGDTYYDDSVEGRFTFSRDIAKNAVYLQMNSLQPEDTAVYYCAAAPTSFATTAYSSSNSYAYWGQGTQVTVSS", "Condition not met"),
    ("FJ1427_P035MP07D09 (VHH, tested as periplasmic extract; also called Clone nr) VHH: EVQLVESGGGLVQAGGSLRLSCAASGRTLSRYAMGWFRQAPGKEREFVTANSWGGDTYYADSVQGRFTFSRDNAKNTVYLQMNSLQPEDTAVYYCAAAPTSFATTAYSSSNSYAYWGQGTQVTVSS", "Condition not met"),
    ("FJ1427_P035MP07E03 (VHH, tested as periplasmic extract; also called Clone nr; 597) VHH: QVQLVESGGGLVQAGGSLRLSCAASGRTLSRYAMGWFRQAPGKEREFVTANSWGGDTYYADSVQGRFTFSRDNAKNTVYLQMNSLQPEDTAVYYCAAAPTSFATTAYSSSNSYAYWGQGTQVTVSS", "Condition met"),
    ("FJ1427_P035MP07A02 (VHH, tested as periplasmic extract; also called Clone nr) VHH: QVQLVESGGGLVQAGGSLRLSCAASGRALSRLAMGWFRQAPGKEREFVVASSWGDDTFYADSVKGRFTFSRDNAKNTVYLQMNSLQPGDTAVYYCAAAPTSFATTAYSSSNSYAYWGQGTQVTASS", "Condition not met"),
]
